# TARGET_SYSTEM: Trace amine-associated receptor 1 (Homo sapiens, UniProt Q96RJ0);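 note: inhibition of calcium response to PEA at EC80 in Galpha16 coupled cells measured by Fluo-8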
# Sequence (Q96RJ0 whole entry): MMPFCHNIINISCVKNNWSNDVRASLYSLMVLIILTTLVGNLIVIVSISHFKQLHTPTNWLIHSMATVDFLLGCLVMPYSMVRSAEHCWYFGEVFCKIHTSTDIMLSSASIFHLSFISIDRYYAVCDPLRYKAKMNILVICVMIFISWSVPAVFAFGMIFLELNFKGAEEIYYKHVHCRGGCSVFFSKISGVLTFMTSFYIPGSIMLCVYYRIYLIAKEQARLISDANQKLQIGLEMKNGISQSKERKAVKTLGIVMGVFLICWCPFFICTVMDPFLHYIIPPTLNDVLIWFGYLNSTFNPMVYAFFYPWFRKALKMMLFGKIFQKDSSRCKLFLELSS
# ASSAY_NOTES: Counterscreen for agonists of the human trace amine associated receptor 1 (hTAAR1): Fluorescence-based cell-based high throughput dose response assay to identify hTAAR1 agonist that also desensitize TAAR1 receptor response.
# Type: functional
Structures can show the parent of a compound that is named as a salt. Activity calls are given as the source filed them.
Write down the outcome that applies. Available outcomes: label 1 for active, label 0 for inactive

Example entries and their recorded answers appear below.
MOLECULE	CATEGORY
CCc1ccc(N2CN(CCc3ccccc3)CN=C2S)cc1	label 1
O=S(=O)(NCCc1ccccc1)c1ccc(F)cc1	label 1
c1ccc2c(c1)CCCC2C1=NCCN1 (centres undefined) [TETRAHYDROZOLINE HYDROCHLORIDE]	label 1

Exercise: # outcome recorded in this test, key = `O=C(Cc1nnc(O)nc1O)N/N=C/c1ccccc1`
Solution: label 0

---

# ASSAY_NOTES: Luminescence Cell-Based Dose Retest to Confirm Inhibitors of Cancer Stem Cells. [Related pubchem assays (depositor defined):AID2717, AID2721]
# Type: functional
# CONDITION_DESCRIPTION: Homo sapiens
Activity calls are given as the source filed them.
MEASURED_PARAMETER: AC50

Exercise: What value of AC50 has been reported for the following molecule? `Cc1ccccc1NCc1ccc([N+](=O)[O-])s1`
Solution: 11000 nM (active)

Exercise: What value of AC50 has been reported for the following molecule? `CCc1ccc2nc(SCC(=O)Nc3ccccc3N3CCOCC3)c(C#N)cc2c1`
Solution: 2390 nM (active)

Exercise: What value of AC50 has been reported for the following molecule? `CN1C(=O)C(=CNNc2ccccc2)C(=O)N(C)C1=O`
Solution: 2870 nM (active)

Exercise: What value of AC50 has been reported for the following molecule? `COc1ccc2cc(C(=O)N/N=C/c3sc4ccccc4c3O)ccc2c1`
Solution: 1610 nM (active)

Exercise: What value of AC50 has been reported for the following molecule? `Cn1cncc1C#Cc1c(-c2ccsc2)sc2ccccc12`
Solution: 4680 nM (active)

---

# TARGET_SYSTEM: Zinc finger protein mex-5 (Caenorhabditis elegans, UniProt Q9XUB2)
# Sequence (Q9XUB2 whole entry): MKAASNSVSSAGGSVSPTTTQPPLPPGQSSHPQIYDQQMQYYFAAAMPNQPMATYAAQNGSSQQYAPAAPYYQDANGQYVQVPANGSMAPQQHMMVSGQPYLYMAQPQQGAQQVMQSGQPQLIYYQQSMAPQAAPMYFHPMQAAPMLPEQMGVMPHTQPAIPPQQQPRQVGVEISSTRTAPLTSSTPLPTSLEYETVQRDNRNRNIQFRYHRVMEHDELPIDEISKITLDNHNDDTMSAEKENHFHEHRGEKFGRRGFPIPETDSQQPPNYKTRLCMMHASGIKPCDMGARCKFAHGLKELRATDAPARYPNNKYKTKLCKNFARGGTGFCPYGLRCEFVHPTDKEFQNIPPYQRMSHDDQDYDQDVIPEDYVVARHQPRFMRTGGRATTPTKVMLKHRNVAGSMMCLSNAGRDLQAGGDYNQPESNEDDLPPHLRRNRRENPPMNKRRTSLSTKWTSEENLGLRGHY
# ASSAY_NOTES: potency of MEX-5 RNA-binding blockers – biochemical, C. elegans, fluorescence polarization, dose response (AID 1960)
Activity calls are given as the source filed them.
MEASURED_PARAMETER: EC50

MOLECULE	TARGET_SYSTEM	EC50
CC[n+]1c(/C=C/c2ccc(N(C)C)cc2)ccc2ccccc21	Zinc finger protein mex-5 (Caenorhabditis elegans, UniProt Q9XUB2)	> 300 µM (not active)
O=C1NC(=O)N(Cc2ccccc2Cl)C(=O)/C1=C/Nc1ccc(F)cc1	Zinc finger protein mex-5 (Caenorhabditis elegans, UniProt Q9XUB2)	> 300 µM (not active)
COCCNC(=O)CCC(=O)NNc1nc2ccccc2c2nc(C)nn12	Zinc finger protein mex-5 (Caenorhabditis elegans, UniProt Q9XUB2)	1.21 µM (active)
Cc1ccc(-c2nc3cc(C(N)=O)ccc3c(O)c2O)cc1	Zinc finger protein mex-5 (Caenorhabditis elegans, UniProt Q9XUB2)	8.44 µM (inconclusive)
Cc1nc2cc(N)ccc2n1C1CCCCC1	Zinc finger protein mex-5 (Caenorhabditis elegans, UniProt Q9XUB2)	4.72 µM (inconclusive)
CCOC(=O)c1c(NC(=O)CC2Nc3ccccc3NC2=O)sc(C)c1C (stereo not drawn)	Zinc finger protein mex-5 (Caenorhabditis elegans, UniProt Q9XUB2)	> 300 µM (not active)

Exercise: Short answer please: EC50, Zinc finger protein mex-5 (Caenorhabditis elegans, UniProt Q9XUB2), entry `N=c1c(C(=O)NC2CCCCC2)cc2c(=O)n3ccccc3nc2n1Cc1ccc(F)cc1`
Solution: 13.3 µM (active)

Exercise: Short answer please: EC50, Zinc finger protein mex-5 (Caenorhabditis elegans, UniProt Q9XUB2), entry `CCc1c(C)nc(SCC(=O)c2cccs2)c(C#N)c1C`
Solution: 36.7 µM (inconclusive)

Exercise: Short answer please: EC50, Zinc finger protein mex-5 (Caenorhabditis elegans, UniProt Q9XUB2), entry `N=c1c(C(=O)NC2CCCCC2)cc2c(=O)n3ccccc3nc2n1Cc1cccnc1`
Solution: 12.7 µM (active)

Exercise: Short answer please: EC50, Zinc finger protein mex-5 (Caenorhabditis elegans, UniProt Q9XUB2), entry `Cc1cc(C(=O)O)ccc1-n1c(C)ccc1C`
Solution: 8.59 µM (active)

Cited source for all entries: ChEMBL document CHEMBL1201862
